# ASSAY_DETAILS: Chemical stability assessment of peptides (relative purity loss)
# Format: physicochemical
# ASSAY_SETUP: 50 mM phosphate buffer pH 7.4 + acetonitrile (1:1); 24 hours at 37° C.
Starred links: 1 amine or outer side, 2 acyl side, 3 side chain; linkers in the order of their positions; H or OH if unused. Positions of bridges follow the written chain, without caps; N, C: chain ends. Non-standard residues stand in square brackets, D forms with d. Residues, ends and D or L forms follow the SMILES beside them. *: point of attachment. X3 = CN(CCCCC(=O)N[C@@H](CS[*:2])C(=O)[*:1])[*:3]; X1 = O=C(CCCCN[*:3])N[C@@H](CS[*:2])C(=O)[*:1]; 2Nal = N[C@@H](Cc1ccc2ccccc2c1)C(=O)O; AEF = NCCOc1ccc(C[C@H](N)C(=O)O)cc1; Thp = NC1(C(=O)O)CCOCC1; Me2NCH2CH2 = CN(C)CC*; Aib = CC(C)(N)C(=O)O
Listed compounds paired with reported Chemical stability (relative purity loss) Buffer pH 7.4
MEASUREMENT_NAME: Chemical stability (relative purity loss) Buffer pH 7.4

* CC(=O)NCCCC[C@@H]1NC(=O)[C@H](Cc2c[nH]c3c(C)cccc23)NC(=O)[C@@H](NC(C)=O)CCCCNC(=O)[C@@H]2CSSC[C@H](NC1=O)C(=O)N[C@@H](Cc1ccc(OCCN(C)C)cc1)C(=O)N[C@@H](Cc1ccc3ccccc3c1)C(=O)NC1(CCOCC1)C(=O)N[C@H](C(=O)N[C@@H](CC(N)=O)C(=O)N[C@@H](Cc1cccnc1)C(=O)N(C)CC(N)=O)CCCCN(C)CCCCN2C [compound 127] | 11.0%
* CC(=O)N[C@H]1CCCCNC(=O)[C@@H]2CSSC[C@H](NC(=O)[C@H](CCC(N)=O)NC(=O)[C@H](Cc3c[nH]c4ccccc34)NC1=O)C(=O)N[C@@H](Cc1ccc(OCCN)cc1)C(=O)N[C@@H](Cc1ccc3ccccc3c1)C(=O)NC1(CCOCC1)C(=O)N[C@H](C(=O)N[C@@H](C)C(=O)NCC(N)=O)CCC(=O)N(C)CCCCC(=O)N2 [compound 17] (Ac-KWQC[AEF][2Nal][Thp]EAG-NH2; linker 1-4-8 via X3) | 0.0%
* CC(=O)N[C@H]1CCCCNC(=O)[C@@H]2CSSC[C@H](NC(=O)[C@H](CCC(N)=O)NC(=O)[C@H](Cc3c[nH]c4ccccc34)NC1=O)C(=O)N[C@@H](Cc1ccc(OCCN(C)C)cc1)C(=O)N[C@@H](Cc1ccc3ccccc3c1)C(=O)NC(C)(C)C(=O)N[C@H](C(=O)N[C@@H](C)C(=O)NCC(N)=O)CCC(=O)NCCCCC(=O)N2 [compound 32] (Ac-KWQCY(Me2NCH2CH2)[2Nal][Aib]EAG-NH2; linker 1-4-8 via X1) | 1.0%
